tested_on: recombinant human FLAP protein (Homo sapiens, UniProt P20292)
Sequence (P20292 1-161): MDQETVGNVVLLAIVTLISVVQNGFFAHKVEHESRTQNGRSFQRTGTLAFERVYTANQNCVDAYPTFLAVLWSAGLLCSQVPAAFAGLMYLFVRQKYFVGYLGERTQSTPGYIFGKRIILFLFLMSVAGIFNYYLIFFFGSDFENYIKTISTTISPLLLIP
protocol_text: FLAP binding assay (Scintillation Proximity Assay, displacement of [125I]L-691,831)
details: recombinant human FLAP membranes, [125I]L-691,831 probe; read-out: FLAP SPA IC50
readout_kind: pIC50
One number for each entry, as −log10 of the molar value.

Solved cases below.
CN(C)C(=O)Cn1cnc(-c2nc(C3(c4ccc(-c5cnc(N)nc5)cc4)CCC3)no2)c1 ... 7.44
COCCn1cccc(-c2nc(C3(c4ccc(-c5cnc(N)nc5)cc4)CCC3)no2)c1=O ... 8.08
N#CC1CCN(CCn2cc(-c3nc(C4(c5ccc(-c6cnc(N)nc6)cc5)CCC4)no3)cn2)CC1 ... 8.09

Items follow; give pIC50 for each.
1. Cn1cc(-c2nc(C3(c4ccc(-c5cnc(N)nc5)cc4)CCC3)no2)cnc1=O
2. COCCN(C)C(=O)Cn1cc(-c2nc(C3(c4ccc(-c5cnc(N)nc5)cc4)CCC3)no2)cn1
3. Cn1ncc(-c2nc(C3(c4ccc(-c5cnc(N)nc5)cc4)CCC3)no2)c1N
4. Nc1ncc(-c2ccc(C3(c4noc(-c5ccc(N6CCNCC6)nc5)n4)CCC3)cc2)cn1

[8.14, 8.46, 8.62, 8.74]

* * *

tested_on: recombinant human FLAP protein (Homo sapiens, UniProt P20292)
Sequence (P20292 1-161): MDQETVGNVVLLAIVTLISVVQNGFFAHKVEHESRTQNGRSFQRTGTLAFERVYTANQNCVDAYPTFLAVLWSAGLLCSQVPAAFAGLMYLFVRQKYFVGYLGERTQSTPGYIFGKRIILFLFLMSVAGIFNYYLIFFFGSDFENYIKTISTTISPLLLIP
protocol_text: FLAP binding assay (Scintillation Proximity Assay, displacement of [125I]L-691,831)
details: recombinant human FLAP membranes, [125I]L-691,831 probe; read-out: FLAP SPA IC50
Please provide measured IC50 for the entries that follow.

Here's what some known entries look like.
Cn1cc(-c2nc(C3(c4ccc(-c5cnc6c(c5)CCN6)cc4)CCC3)no2)cn1 ... 3.8 nM
Cc1n[nH]cc1-c1nc(C2(c3ccc(-c4cnc(N)nc4)cc3)CCC2)no1 ... 1.1 nM
CC(C)(C#N)NC(=O)Cn1cc(-c2nc(C3(c4ccc(-c5cnc(N)nc5)cc4)CCC3)no2)cn1 ... 1.8 nM
CN(C)C(=O)Cn1cc(-c2nc(C3(c4ccc(-c5cnc(N)nc5)cc4)CC3)no2)cn1 ... 670 nM
Cc1nc(-c2ccc(C3(c4noc(-c5cnn(C)c5)n4)CCC3)cc2)cnc1N ... 2.2 nM
Nc1ncc(-c2ccc(C3(c4noc(-c5ccc(N6CCNCC6)cc5)n4)CCC3)cc2)cn1 ... 1.3 nM
CN(CCO)c1ccc(-c2nc(C3(c4ccc(-c5cnc(N)nc5)cc4)CCC3)no2)nn1 ... 1.6 nM

Give recorded IC50. Nc1ncc(-c2ccc(C3(c4noc(-c5cn(C(c6ccccc6)(c6ccccc6)c6ccccc6)cn5)n4)CCC3)cc2)cn1
250 nM
